protocol: In vivo pharmacokinetics in blood plasma
Design: species or system male CD-1 (ICD) mice
measurement conditions: male, CD-1 (ICD), mouse; PO, 5 mg/kg, mice plasma; read-out: Tmax (min, PO) (converted)
value type: Tmax (h)

(A) NC(=O)c1c(N)n(-c2cccc(NC(=O)c3cccc(C(F)(F)F)c3)c2)c2nc3ccccc3nc12 [Compound 10d]
(B) NC(=O)c1c(N)n(-c2cccc(C(=O)Nc3cccc(C(F)(F)F)c3)c2)c2nc3ccccc3nc12 [Compound 10c]
stdin: In terms of reported Tmax, does A or B have the smaller number? Field: selected label. Fill in the label of the entry you choose.
stdout: B

###

Entries with reported GI50 on KM12 (colon cancer) cells
value type: GI50 (µM)

{"molecule": "NC(=O)c1c(N)n(-c2ccc(NC(=S)Nc3cccc(C(F)(F)F)c3)cc2)c2nc3ccccc3nc12 [Compound 10k]", "tested target": "KM12 (colon cancer) cells", "unit descriptor": "µM", "GI50": 2.52}
{"molecule": "Cc1ccc(-n2nc(C(C)(C)C)cc2NC(=O)Nc2ccc(-n3c(N)c(C(N)=O)c4nc5ccccc5nc43)cc2)cc1 [Compound 10o]", "tested target": "KM12 (colon cancer) cells", "unit descriptor": "µM", "GI50": 0.21}
{"molecule": "Cc1cn(-c2cc(NC(=O)c3ccc(C)c(-n4c(N)c(C(N)=O)c5nc6ccccc6nc54)c3)cc(C(F)(F)F)c2)cn1 [Compound 10l]", "tested target": "KM12 (colon cancer) cells", "unit descriptor": "µM", "GI50": 2.84}
{"molecule": "NC(=O)c1c(N)n(-c2ccc(NC(=O)Nc3cccc(C(F)(F)F)c3)cc2)c2nc3ccccc3nc12 [Compound 10p]", "tested target": "KM12 (colon cancer) cells", "unit descriptor": "µM", "GI50": 0.67}
{"molecule": "Cc1cn(-c2cc(C(=O)Nc3ccc(C)c(-n4c(N)c(C(N)=O)c5nc6ccccc6nc54)c3)cc(C(F)(F)F)c2)cn1 [Compound 10m]", "tested target": "KM12 (colon cancer) cells", "unit descriptor": "µM", "GI50": 2.54}
{"molecule": "NC(=O)c1c(N)n(-c2cc(NC(=O)c3cccc(C(F)(F)F)c3)ccc2F)c2nc3ccccc3nc12 [Compound 10h]", "tested target": "KM12 (colon cancer) cells", "unit descriptor": "µM", "GI50": 2.16}
{"molecule": "NC(=O)c1c(N)n(-c2cc(C(=O)Nc3cccc(C(F)(F)F)c3)ccc2F)c2nc3ccccc3nc12 [Compound 10j]", "tested target": "KM12 (colon cancer) cells", "unit descriptor": "µM", "GI50": 1.87}
{"molecule": "Cc1ccc(C(=O)Nc2cccc(C(F)(F)F)c2)cc1-n1c(N)c(C(N)=O)c2nc3ccccc3nc21 [Compound 10i]", "tested target": "KM12 (colon cancer) cells", "unit descriptor": "µM", "GI50": 1.57}
{"molecule": "CC(C)(C)c1cc(NC(=O)Nc2ccc(-n3c(N)c(C(N)=O)c4nc5ccccc5nc43)cc2)n(-c2ccc3ncccc3c2)n1 [Compound 10n]", "tested target": "KM12 (colon cancer) cells", "unit descriptor": "µM", "GI50": 0.15}
{"molecule": "Cc1ccc(NC(=O)c2cccc(C(F)(F)F)c2)cc1-n1c(N)c(C(N)=O)c2nc3ccccc3nc21 [Compound 10g]", "tested target": "KM12 (colon cancer) cells", "unit descriptor": "µM", "GI50": 0.8}

###

tested target: EphA3 (Homo sapiens, UniProt P29320)
Sequence (P29320 606-947): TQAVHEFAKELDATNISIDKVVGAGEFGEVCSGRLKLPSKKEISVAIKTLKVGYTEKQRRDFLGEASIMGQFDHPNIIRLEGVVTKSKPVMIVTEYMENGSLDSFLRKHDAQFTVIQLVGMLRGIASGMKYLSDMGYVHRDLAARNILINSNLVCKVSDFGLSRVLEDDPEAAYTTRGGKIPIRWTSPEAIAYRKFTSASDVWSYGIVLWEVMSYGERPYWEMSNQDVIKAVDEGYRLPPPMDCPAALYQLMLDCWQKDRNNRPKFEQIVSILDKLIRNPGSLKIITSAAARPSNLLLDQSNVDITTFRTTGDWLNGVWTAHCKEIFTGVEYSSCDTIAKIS
value type: Kd (nM)

(I) NC(=O)c1c(N)n(-c2cccc(NC(=O)c3cccc(C(F)(F)F)c3)c2)c2nc3ccccc3nc12 [Compound 10d]
(II) NC(=O)c1c(N)n(-c2cccc(C(=O)Nc3cccc(C(F)(F)F)c3)c2)c2nc3ccccc3nc12 [Compound 10c]
stdin: In terms of reported Kd, does I or II have the smaller number? Field: selected label. Fill in the label of the entry you choose.
stdout: II
(II: 3.7 nM, I: 40.1 nM)

###

protocol: In vivo pharmacokinetics in blood plasma
Parameters: species or system male CD-1 (ICD) mice
measurement conditions: male, CD-1 (ICD), mouse; IV, 1 mg/kg, mice plasma; read-out: T1/2 (min, IV)
value type: half-life (h)
Please state the figure in h; there is no need to write the unit.

stdin: If you can, please state the reported half-life value of NC(=O)c1c(N)n(-c2cccc(NC(=O)c3cccc(C(F)(F)F)c3)c2)c2nc3ccccc3nc12 [Compound 10d] .
stdout: 1.18
